- Test system: NCI/ADR-RES
- Assay Notes: NCI tumour cell line growth inhibition, 48 h
Active and inactive are the calls of the source. No stated cut-off is given here; in the data, active = GI50 up to about 1.1 µM and inactive = higher.
In this exercise, the only acceptable responses are yes (active), no (inactive)

Before answering, review these 6 worked examples.
COCOc1ccc(OC)cc1
no
C/C(=N/O)c1cccc(Nc2nc3ccccc3c3[nH]c4ccccc4c23)c1
no
COc1cc(OC2OC(CO)C(O)C(O)C2O)c2c(c1)O[C@@H]1[C@H](O)Oc3cc(OC)c(OC)cc3[C@]1(O)C2=O (stereo partly specified)
no
CC(O)CN1c2ccccc2Sc2ccc(Cl)cc21 (stereo unspecified)
no
O=S(=O)(c1ccccc1)n1c2ccc(Br)cc2c2nc3ccccc3nc21
no
O=C(Nc1ccccc1)c1cc(S(=O)(=O)NC2=Nc3ccc(Cl)cc3C(c3ccccc3)N2)c(SSc2cc(Cl)c(C(=O)Nc3ccccc3)cc2S(=O)(=O)NC2=Nc3ccc(Cl)cc3C(c3ccccc3)N2)cc1Cl (stereo unspecified)
no

Assay outcome for Oc1cc(-c2cccc(F)c2)nc2cc3c(cc12)OCO3 : what was it?
yes

Now consider O=c1c(-c2ccc(O)cc2)coc2cc(OC3OC(CO)C(O)C(O)C3O)cc(O)c12 (stereo unspecified) .
no

Now consider COc1c(OC/C=C(\C)CCC=C(C)C)ccc2ccc(=O)oc12 .
no

Now consider O=C1CC2(CCNCC2)C(=O)N1N1CCOCC1 .
no

Now consider Cc1ccc(/C=C/C(=O)c2cc(CN(C)C)c(O)c(CN(C)C)c2)cc1 .
no

Now consider c1nncn1C12C3C4C5C3C1C5C42 (stereo unspecified) .
no

Now consider CC(C)/C(Cl)=N\OC(NC(=O)P(=O)(c1ccccc1)c1ccccc1)(C(F)(F)F)C(F)(F)F .
no

Now consider Cc1nc(Nc2ccc(Cl)c(Cl)c2)sc1C(=O)/C=C/c1ccc2c(c1)OCO2 .
no

Now consider N/C(=N/O)N/N=C\c1cc(Cl)cc(Cl)c1O .
no

----------
I'd be grateful if you could share measured GI50 for these entries.
- Test system: SF-295
- Assay Notes: NCI tumour cell line growth inhibition, 48 h
Calls of active or inactive are those of the source. No stated cut-off is given here; in the data, active = GI50 up to about 1.1 µM and inactive = higher.

Here are 3 molecules together with their reported answers.
C[N+](C)([O-])CCC=C1c2ccccc2CCc2ccccc21
27.5 µM (inactive)
CCOc1ccc(C(c2c(O)c3ccccc3oc2=O)c2c(O)c3ccccc3oc2=O)cc1
> 100 µM (inactive)
CC(=O)OCCn1cnc2c(NCC=C(C)C)ncnc21
> 100 µM (inactive)

Quick request: GI50 for each listed item, please.
1. COC(=O)/C(=N\NC(=O)c1ccccc1O)C(C#N)c1ccccc1 (stereo unspecified)
2. CC(C)(C1=NC(C(C)(C)C)CO1)C1=N[C@@H](C(C)(C)C)CO1 (stereo partly specified)
3. Cc1nc(N)sc1C(=O)Nc1nc[nH]n1
4. Oc1ccc(-c2nc3cc(F)ccc3s2)cc1
5. N#CC1=C(N)OC2=C(CCCc3ccc([N+](=O)[O-])cc32)C1c1ccc(Cl)cc1 (stereo unspecified)

1: 22.1 µM (inactive); 2: > 100 µM (inactive); 3: > 100 µM (inactive); 4: 19.6 µM (inactive); 5: 11 µM (inactive)

Quick request: GI50 for each listed item, please.
1. O=C(CC1(O)C(=O)Nc2c(Cl)cc(Cl)cc21)c1ccc(Br)cc1Br (stereo unspecified)
2. CC(C)(C)c1ccc(O)c(CN(Cc2c(O)ccc3ccccc23)C2CCCCC2)c1
3. N#CCN1CCOCCOCCN(CC#N)CCOCCOCC1

["20 µM (inactive)", "18.3 µM (inactive)", "> 100 µM (inactive)"]

----------
I'd be grateful if you could share measured GI50 for these entries.
- System: ACHN
- Assay Notes: NCI tumour cell line growth inhibition, 48 h
Calls of active or inactive are those of the source. Cut-off read from the data, not from the text of the source: active = GI50 up to about 1.1 µM and inactive = higher.

Here are 4 molecules together with their reported answers.
COc1ccc2nc3cc([N+](=O)[O-])ccc3c(Nc3ccc(S(=O)(=O)Nc4ncccn4)cc3)c2c1
28.8 µM (inactive)
O=c1n(Cc2ccccc2)c2ccccc2n1CC1CS1 (stereo not given)
> 100 µM (inactive)
Cc1nc(N)sc1C(=O)Nc1nc[nH]n1
> 100 µM (inactive)
CN1C(=O)C2(C)SC1(c1ccccc1)C1C(=O)N(c3ccccc3)C(=O)C12 (stereo not given)
91.8 µM (inactive)

Endpoint output: GI50 of CC(=O)Nc1ccc(C(=O)N2N=C(C)/C(=C/c3cccc(O)c3)C2=O)cc1 . Value?
> 100 µM (inactive)

----------
I'd be grateful if you could share measured GI50 for these entries.
- Tested on: A498
- Assay Notes: NCI tumour cell line growth inhibition, 48 h
The source made the active and inactive calls. Rule as the data show it: active = GI50 up to about 1.1 µM and inactive = higher.

Here are 9 compounds together with their reported answers.
O=P(O)(O)c1ccccc1Oc1ccccc1
3.95 µM (inactive)
N#CCN1CCOCCOCCN(CC#N)CCOCCOCC1
> 100 µM (inactive)
C/C(O[Si](C(C)C)(C(C)C)C(C)C)=C(\C)C(=O)N(C)c1ccccc1Cl
> 100 µM (inactive)
N#Cc1c(C#N)c(-c2ccco2)n(/N=C/c2ccco2)c1N
27.6 µM (inactive)
COc1cccc(-c2ccc3c4c2O[C@H]2C(=O)CC[C@@]5(O)[C@@H](C3)N(CC3CC3)CC[C@]425)c1
18.7 µM (inactive)
c1ccc(C2N=C(c3ccccn3)C(c3ccccn3)=NC2c2ccccc2)cc1 (stereo not given)
> 100 µM (inactive)
COP(=O)(CC(=O)C1OC(C)(C)OC1C(O)COCc1ccccc1)OC (stereo not given)
> 100 µM (inactive)
O=C1Oc2ccccc2C1C/C(=N\Nc1ccccc1)c1ccccc1O (stereo not given)
33.7 µM (inactive)
CCOC(=O)c1c(N2CCCC2)[nH]c(=O)c(C(c2c(O)c(C(=O)OCC)c(N3CCCC3)[nH]c2=O)C(C)C)c1O
> 100 µM (inactive)

// below: GI50 requested for another compound
Form field: GI50 recorded for Cc1ccc(NC(=O)c2cc3ccccc3c(/N=N/c3cc(S(=O)(=O)O)ccc3O)c2O)c(C)c1 with A498 (enter value)
42.3 µM (inactive)

----------
- Test system: DMS-273
- Assay Notes: NCI tumour cell line growth inhibition, 48 h
The source made the active and inactive calls. Cut-off read from the data, not from the text of the source: active = GI50 up to about 1.1 µM and inactive = higher.
In this exercise, the only acceptable responses are active, inactive

Before answering, review these 8 worked examples.
O=[N+]([O-])C(/C=N/Nc1ccccc1)/C=N/Nc1ccccc1
inactive
Cc1ccc(/C=C/C(=O)C(C)(C)CN2CCCCC2)cc1
inactive
COc1cc2c3cc1Oc1c(O)c(OC)cc4c1C(Cc1ccc(O)c(c1)Oc1ccc(cc1)CC3N(C)CC2)N(C)CC4 (stereo unspecified)
inactive
COc1cccc(/C=C2\CCC(CCN(C)C)(C3=CCCC3)C2=O)c1 (stereo unspecified)
inactive
BrC(Br)=C1C(=C(Br)Br)C(Br)C1Br (stereo unspecified)
active
O=C(CC1(O)C(=O)Nc2c(Cl)cc(Cl)cc21)c1ccc(Br)cc1Br (stereo unspecified)
inactive
COc1cc2c(cc1OC)c1c(OC)c(OC)cc3c1c1c2sc(=S)n1CC3
inactive
CC(C)COC(=O)N1N=NC2C3CC(=O)C(O3)C21 (stereo unspecified)
inactive

Assay outcome for COc1ccc(CNC2=C(NC(C)=O)C(=O)c3ccccc3C2=O)cc1 : what was it?
inactive

Now consider O=S(=O)(Cc1ccccc1)SCc1ccccc1 .
inactive

Now consider OC(c1ccccc1)(c1ccccc1)c1cccnc1 .
inactive

----------
- System: SNB-75
- Assay Notes: NCI tumour cell line growth inhibition, 48 h
Calls of active or inactive are those of the source. Rule as the data show it: active = GI50 up to about 1.1 µM and inactive = higher.
I'd be grateful if you could share measured GI50 for these entries.

Cc1nc(Nc2ccc(Cl)c(Cl)c2)sc1C(=O)/C=C/c1ccc2c(c1)OCO2
14.4 µM (inactive)

Quick request: GI50 for each listed item, please.
1. O=C1c2ccccc2-c2cccc3ccc(Cc4ccc5ccccc5c4)c1c23
2. COc1c(OC/C=C(\C)CCC=C(C)C)ccc2ccc(=O)oc12
3. COC1(OC)C2(Cl)C(Cl)=C(Cl)C1(Cl)C1COCC12 (stereo not given)
4. CCC1N2CCCCC2[C@@H]2c3[nH]c4ccccc4c3CCN12 (stereo not given in full)

26.4 µM (inactive)
> 100 µM (inactive)
> 100 µM (inactive)
77.8 µM (inactive)

----------
So I've got GI50 readings for HCT-15, take a look.

N#Cc1c2c(c(Nc3ccc(F)cc3)n3c1nc1ccccc13)CCCC2
> 100 µM
O=C1NCCCC12CCCNC2=O
> 100 µM
COc1cc(OC)c(OC)cc1/C=N/NC(=O)N/N=C/c1cc(OC)c(OC)cc1OC
> 100 µM

Quick request: GI50 for each listed item, please.
1. CCN(CC)c1ccc2c(c1)Oc1ccc(N(CC)CC)cc1C21Oc2ccccc2-c2c1c1ccccc1n2CC (stereo unspecified)
2. COc1ccc(/C=C/c2cc(OC)c(OC)c(OC)c2)cc1

["3.82 µM", "2.57 µM"]

Quick request: GI50 for each listed item, please.
1. N#Cc1c(C#N)c(-c2ccco2)n(/N=C/c2ccco2)c1N
2. Clc1ccc(Cc2nc3cc(Cl)c(Cl)cc3n2CC2CCCN3CCCCC23)cc1Cl (stereo unspecified)
3. CC1CCC[P+](Cc2ccccc2)(c2ccccc2)CC1 (stereo unspecified)
4. Nc1nc(Cl)c(N)c(NCC2(CO)CCCC2)n1
5. C=CCOc1ccc(C2c3c(n[nH]c3O)CC(C)(O)C2C(=O)OC)cc1OC (stereo unspecified)
6. O=C(CSc1nnc(Cc2ccccc2)o1)Nc1ccc(Cl)cc1

1: 29.6 µM; 2: 4.76 µM; 3: > 100 µM; 4: > 100 µM; 5: > 100 µM; 6: > 100 µM
